Test system: extracellular plant proteases
Experiment: in vitro
Conditions: 10% extracellular fluid from tobacco leaf, pH 7.4
Ends that are not written are not given here.
VALUE_KIND: remaining at 0.75 h

Problem: Which remaining at 0.75 h value is on record for GIGKFLHSAKKFGKAFVGEIMNS [Peptide No. 1, Magainin 2] ?
Result: 5.3%

----------
Test system: extracellular plant proteases
Experiment: in vitro
Conditions: 10% extracellular fluid from tobacco leaf, pH 7.4
Ends that are not written are not given here.
VALUE_KIND: remaining at 1 h

Problem: Which remaining at 1 h value is on record for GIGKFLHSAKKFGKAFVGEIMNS [Peptide No. 1, Magainin 2] ?
Result: 0.5%
